Molecular target: huPD1 (human) (UniProt Q15116)
Sequence (Q15116 25-170 limits assumed): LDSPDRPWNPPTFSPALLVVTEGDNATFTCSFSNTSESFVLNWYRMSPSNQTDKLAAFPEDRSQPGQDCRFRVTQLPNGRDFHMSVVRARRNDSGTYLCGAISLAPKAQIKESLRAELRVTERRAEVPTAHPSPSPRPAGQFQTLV
Test: biosensor kinetics (BLI type); antibody captured on anti-human Fc biosensor, PD-1 in solution
Listing of entries alongside the reported log10 of koff.
measurementKind: log10 of koff (log10 of the value in s⁻¹)

TA101 (antibody, V domains shown, Fc SEQ 587, CL SEQ 416) VH: DVQLVESGGGVARPGEFLRLSCAASGFTFRDYDMGWVRQAPGEGLEWVSSISVSGTTYYADSVKGRFTISRDNSENTLYLQMNSLTAEDTAVYYCGREDTLFHYWGLGTLVTVSS VL: QSVLTQPPSASGTPGQRVTISCSGSTSNIGTRYVYWYQQLPGTAPKLLIYKNLQRPSGVPDRFSGSKSGTSASLAISGLQSEDEADYYCAAWDERLNGWVFGGGTKLTVL    -1.66
TA275 (antibody, V domains shown, Fc SEQ 587, CL SEQ 416) VH: QVTLKESGPGILQPSQTLSLTCSFSGFSLSTFGMGVGWIRQPSGKGLEWLAHIWWDDDKYYNPALKSRLTISKDTSKNQVFLKIANVDTADTATYYCARIPTRYWYFDVWGTGTTVTVSS VL: QAVVTQESALTTSPGETVTLTCRSSTGAVTTSNYANWVQEKPDHLFTGLIGGTNNRAPGVPARFSGSLIGDKAALTITGAQTEDEAIYFCALWYSTHYVFGGGTKVTVL    -0.70
TA132 (antibody, V domains shown, Fc SEQ 587, CL SEQ 416) VH: EVQLLESGGAFVQPGGSLRLSCAASGFTFSDYYMSWVRQAPGKGLEWVSVISNSGGSTYYTDSVKGRFTISRDNSKNTLYLQINSLRAEDTAVYYCTKDIGMTYFDYWGQGTLVTVSS VL: QSVLTQPPSASGAPGQRVTISCSGSYSNIGNSYVSWYQQLPGTAPKLLIYLNSQRPSGVPDRFSGSKSGTSASLAISGLQSEDEADYYCAAWDDLNVWVFGGGTKLTVL    -3.19
TA289 (antibody, V domains shown, Fc SEQ 587, CL SEQ 416) VH: QVTLKESGPGILQPSQTLSLTCSFSGFSLSTFGMGVGWIRQPSGKGLEWLAHIWWDDDKYYNPALKSRLTISKDTSKNQVFLKIANVDTADTATYYCARIRGTWWYFDVWGTGTTVTVSS VL: QAVVTQESALTTSPGETVTLTCRSSTGAVTTSNYANWVQEKPDHLFTGLIGGTNNRAPGVPARFSGSLIGDKAALTITGAQTEDEAIYFCALWYSNQFIFGSGTKVTVL    0.20
TA102 (antibody, V domains shown, Fc SEQ 587, CL SEQ 416) VH: DVQLVESGGGVVRPGESLRLSCAASGFTFRNYDMTWVRQAPGEGLEWVATISGTDDTTYYADSVKGRATISRDNSNNTLYLRLFSLRAEDTAIYYCAREASNSFIDYWGLGTLVTVSS VL: QSVLTQPPSASGTPGQRVTISCSGSSSNIGRRYVYWYQQLPGTAPKLLIYRNFERPSGVPDRFSGSKSGTSASLAISGLQSEDEADYYCASWDESLNGWVFGGGTKLTVL    -1.85
TA104 (antibody, V domains shown, Fc SEQ 587, CL SEQ 416) VH: DVQLVESGGGVARPGESLRLSCAASGFTFRDYDMGWVRQAPGEGLEWVSSISVSGTTYYADSVKGRFTISRDNSENTLYLQMNSLTAEDTAVYYCGREDTLFHYWGLGTLVTVSS VL: QSVLTQPPSASGTPGQRVTISCSGSTSNIGTRYVYWYQQLPGTAPKLLIYKNLQRPSGVPDRFSGSKSGTSASLAISGLQSEDEADYYCAAWDERLNGWVFGGGTKLTVL    -1.62
